What follows is a record of IC50 for CYP2C9 (Homo sapiens, UniProt P11712).

[
  {
    "compound": "Clc1cnc2[nH]cc(Cc3cnc(NC4CCCCC4)nc3)c2c1 [Compound P-3001]",
    "IC50": "> 10 µM"
  },
  {
    "compound": "CCn1cc(Nc2ccc(Cc3c[nH]c4ncnc(OC)c34)c(F)n2)cn1 [Compound P-4011]",
    "IC50": "5 to 10 µM"
  }
]

Which IC50 is listed for COc1ccc(Nc2ccc(C(=O)c3c[nH]c4ncnc(NCC5CC5)c34)c(F)n2)cn1 [Compound P-4067] ?
> 10 µM

Ok, now CNc1ncnc2[nH]cc(C(=O)c3ccc(NC4CCCCC4)nc3Cl)c12 [Compound P-4110]
< 5 µM

Ok, now COc1ccc(Nc2ccc(C(=O)c3c[nH]c4ncnc(N[C@@H](C)c5ccc(F)cc5)c34)c(F)n2)cn1 [Compound P-4072]
5 to 10 µM

---

Listing: pIC50 of selected molecules
Molecular target: Flt-3 kinase (Homo sapiens, UniProt P36888)
Sequence (P36888 27-993): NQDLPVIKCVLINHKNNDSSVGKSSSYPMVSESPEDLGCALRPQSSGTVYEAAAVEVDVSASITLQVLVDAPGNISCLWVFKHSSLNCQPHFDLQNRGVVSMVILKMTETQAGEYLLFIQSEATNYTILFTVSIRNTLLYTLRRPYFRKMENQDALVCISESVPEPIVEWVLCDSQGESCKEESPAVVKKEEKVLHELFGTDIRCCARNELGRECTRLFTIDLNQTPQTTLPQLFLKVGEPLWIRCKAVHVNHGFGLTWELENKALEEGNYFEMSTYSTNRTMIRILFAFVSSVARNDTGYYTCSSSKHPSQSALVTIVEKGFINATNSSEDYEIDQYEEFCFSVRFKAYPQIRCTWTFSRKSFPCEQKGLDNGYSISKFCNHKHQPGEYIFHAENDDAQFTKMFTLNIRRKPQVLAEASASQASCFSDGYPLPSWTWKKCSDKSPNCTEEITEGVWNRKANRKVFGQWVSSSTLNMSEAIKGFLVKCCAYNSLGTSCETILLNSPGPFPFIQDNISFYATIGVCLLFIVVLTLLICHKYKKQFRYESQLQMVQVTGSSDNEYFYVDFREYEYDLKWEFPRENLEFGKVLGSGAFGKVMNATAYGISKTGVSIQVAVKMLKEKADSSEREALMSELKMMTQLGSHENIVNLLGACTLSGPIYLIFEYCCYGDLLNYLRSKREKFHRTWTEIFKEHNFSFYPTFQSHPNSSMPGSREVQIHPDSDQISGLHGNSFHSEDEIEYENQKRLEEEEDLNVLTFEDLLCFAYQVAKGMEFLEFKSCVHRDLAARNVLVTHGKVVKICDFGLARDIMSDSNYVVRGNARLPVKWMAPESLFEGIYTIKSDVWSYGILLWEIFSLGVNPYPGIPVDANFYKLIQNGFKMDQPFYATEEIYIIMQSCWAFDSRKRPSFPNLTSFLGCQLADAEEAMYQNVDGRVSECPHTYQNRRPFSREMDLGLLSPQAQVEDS
pIC50: −log10 of the molar value.

// worked examples, pIC50 included
[
  {
    "molecule": "COc1cc(Nc2ncc(Cc3c[nH]c4ncc(C)cc34)cn2)ccc1F [Compound P-3022]",
    "pIC50": "> 7.00"
  },
  {
    "molecule": "COCCOc1ncnc2[nH]cc(Cc3ccc(Nc4ccc(OC)nc4)nc3F)c12 [Compound P-4019]",
    "pIC50": "> 7.00"
  },
  {
    "molecule": "CCOc1ccc(Nc2ccc(Cc3c[nH]c4ncnc(OCCOC)c34)c(F)n2)cn1 [Compound P-4008]",
    "pIC50": "> 7.00"
  }
]

Which pIC50 is listed for Cc1cnc2[nH]cc(C(=O)c3ccc(Nc4ccc(C)nc4)nc3F)c2c1 [Compound P-3043] ?
> 6.00

Ok, now CCOc1ncnc2[nH]cc(Cc3ccc(Nc4cnn(CC)c4)nc3F)c12 [Compound P-4012]
> 6.00

Ok, now Cc1cnc2[nH]cc(Cc3cnc(Nc4ccc(F)cc4)nc3)c2c1 [Compound P-3010]
> 7.00

Ok, now CCOc1ccc(Nc2ccc(Cc3c[nH]c4ncnc(C)c34)c(F)n2)cn1 [Compound P-4006]
> 7.00

Ok, now Cc1ccc(Nc2ccc(C(=O)c3c[nH]c4ncc(Cl)cc34)c(F)n2)cn1 [Compound P-3044]
> 6.00

Ok, now CCOc1ncnc2[nH]cc(Cc3ccc(Nc4ccc(Br)nc4)nc3F)c12 [Compound P-4020]
> 7.00

Ok, now COc1ccc(Nc2ncc(Cc3c[nH]c4ncc(C)cc34)cn2)cn1 [Compound P-3020]
> 8.00

Ok, now CCc1ccc(Nc2ccc(Cc3c[nH]c4ncnc(C5CC5)c34)c(F)n2)cn1 [Compound P-4028]
> 7.00

Ok, now Clc1ccc(Nc2ncc(Cc3c[nH]c4ncc(Cl)cc34)cn2)cc1 [Compound P-3011]
> 8.00

Ok, now CCOc1ccc(Nc2ccc(Cc3c[nH]c4ncnc(OC)c34)c(F)n2)cn1 [Compound P-4005]
> 7.00

Ok, now CCOc1ncnc2[nH]cc(Cc3ccc(Nc4ccc(C)nc4)nc3F)c12 [Compound P-4017]
> 7.00
